The measured values listed here are drawn from patent US20220017589A1.

Overview of recorded GDF15 activity (EC50, pM) for various binders
target-under-test: T1, human GFRAL (human, UniProt Q6UXV0 19-394)
T1 sequence (looked up): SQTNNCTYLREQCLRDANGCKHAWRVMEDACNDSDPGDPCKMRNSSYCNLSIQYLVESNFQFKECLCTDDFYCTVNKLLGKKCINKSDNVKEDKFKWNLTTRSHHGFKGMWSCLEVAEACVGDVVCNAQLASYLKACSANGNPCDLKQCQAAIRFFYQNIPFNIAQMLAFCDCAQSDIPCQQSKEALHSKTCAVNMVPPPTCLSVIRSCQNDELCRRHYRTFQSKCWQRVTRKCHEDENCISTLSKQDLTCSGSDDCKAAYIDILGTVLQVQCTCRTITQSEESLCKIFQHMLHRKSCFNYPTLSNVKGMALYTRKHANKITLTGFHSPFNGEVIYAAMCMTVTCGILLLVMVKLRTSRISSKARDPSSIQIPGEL
assay-details: cell-based or functional assay
readout: GDF15 activity (EC50, pM)

binder="MLC007 (ligand, Moiety A (HOOC-(CH2)16-CO-gGlu-2XADO) on 1K of Linker (32K of fusion polypeptide)) HGEGTFTSDVSSYLEEQAAREFIAWLVRGGGKQEPGQEPGQEPGQEPGQEPGQEPGQEPGQEPGAQPGAQPARQGDHCPLGPGRCCRLHTVRASLEDLGWADWVLSPREVQVTMCIGACPSQFRAANLHAQIKTSLHRLRPDTVPAPCCVPASYNPMVLIQRTDTGVSLQTYDDLLARDCHCI" assay_result=9.5
binder="MLC083 (ligand, Moiety B (HOOC-(CH2)16-CO-gGlu-2XADO-EDA-CO-CH2) on 39C of Linker (70C of fusion polypeptide)) HGEGTFTSDVSSYLEEQAAKEFIAWLVRGGGGQEPGAQPGQEPGAQPGQEPGAQPGQEPGAQPGQEPGQCPGQEPGAQPGAQPGAQPGAQPGAQPGAQPGAQPGAQPGAQPARQGDHCPLGPGRCCRLHTVRASLEDLGWADWVLSPREVQVTMCIGACPSQFRAANLHAQIKTSLHRLKPDTVPAPCCVPASYNPMVLIQKTDTGVSLQTYDDLLAKDCHCI" assay_result=52.4
binder="MLC004 (ligand, Moiety A (HOOC-(CH2)16-CO-gGlu-2XADO) on 26K of GLP-1 (20K of fusion polypeptide)) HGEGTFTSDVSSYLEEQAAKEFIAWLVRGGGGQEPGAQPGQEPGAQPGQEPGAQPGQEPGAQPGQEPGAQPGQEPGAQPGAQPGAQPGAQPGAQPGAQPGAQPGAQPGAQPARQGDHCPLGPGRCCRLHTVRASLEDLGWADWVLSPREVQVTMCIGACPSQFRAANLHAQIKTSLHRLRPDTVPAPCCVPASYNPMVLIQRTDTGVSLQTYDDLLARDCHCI" assay_result=17.3
binder="MLC009 (ligand, Moiety A (HOOC-(CH2)16-CO-gGlu-2XADO) on 15K of Linker (46K of fusion polypeptide)) HGEGTFTSDVSSYLEEQAAREFIAWLVRGGGGQEPGQEPGQEPGQKPGQEPGQEPGQEPGQEPGAQPGAQPARQGDHCPLGPGRCCRLHTVRASLEDLGWADWVLSPREVQVTMCIGACPSQFRAANLHAQIKTSLHRLRPDTVPAPCCVPASYNPMVLIQRTDTGVSLQTYDDLLARDCHCI" assay_result=24.6
binder="MLC103 (ligand, Moiety A (HOOC-(CH2)16-CO-gGlu-2XADO) on 71K of Linker (102K of fusion polypeptide)) HGEGTFTSDVSSYLEEQAAREFIAWLVRGGGGQEPGAQPGQEPGAQPGQEPGAQPGQEPGAQPGQEPGAQPGQEPGAQPGAQPGAQPGAQPGAQPGAQPGAKPGAQPGAQPARQGDHCPLGPGRCCRLHTVRASLEDLGWADWVLSPREVQVTMCIGACPSQFRAANLHAQIKTSLHRLRPDTVPAPCCVPASYNPMVLIQRTDTGVSLQTYDDLLARDCHCI" assay_result=79.2
binder="MLC047 (ligand, Moiety A (HOOC-(CH2)16-CO-gGlu-2XADO) on 40K of linker (71K of fusion polypeptide) per Table 2; Table 3 prints 41K of linker) HGEGTFTSDVSSYLEEQAAREFIAWLVRGGGGQEPGAQPGQEPGAQPGQEPGAQPGQEPGAQPGQEPGAQKGQEPGAQPGAQPGAQPGAQPGAQPGAQPGAQPGAQPGAQPARQGDHCPLGPGRCCRLHTVRASLEDLGWADWVLSPREVQVTMCIGACPSQFRAANLHAQIKTSLHRLRPDTVPAPCCVPASYNPMVLIQRTDTGVSLQTYDDLLARDCHCI" assay_result=59.4
binder="MLC102 (ligand) HGEGTFTSDVSSYLEEQAAKEFIAWLVRGGGGQEPGAQPGQEPGAQPGQEPGAQPGQEPGAQPGQEPGAQPGQEPGAQPGAQPGAQPGAQPGAQPGAQPGAQPGAQPGAQPGAQPGAQPGAQPGAQPGAQPGAQPGAQPGAQPGAQPGAQPARQGDHCPLGPGRCCRLHTVRASLEDLGWADWVLSPREVQVTMCIGACPSQFRAANLHAQIKTSLHRLKPDTVPAPCCVPASYNPMVLIQKTDTGVSLQTYDDLLAKDCHCI" assay_result=29
binder="MLC019 (ligand) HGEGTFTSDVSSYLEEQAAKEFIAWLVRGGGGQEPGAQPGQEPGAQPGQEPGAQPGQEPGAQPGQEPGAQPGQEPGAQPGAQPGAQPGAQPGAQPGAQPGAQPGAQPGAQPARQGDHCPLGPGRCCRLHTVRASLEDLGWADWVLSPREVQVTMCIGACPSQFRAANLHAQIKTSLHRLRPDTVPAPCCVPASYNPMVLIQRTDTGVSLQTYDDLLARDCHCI" assay_result=80.5
binder="MLC111 (ligand, Moiety B (HOOC-(CH2)16-CO-gGlu-2XADO-EDA-CO-CH2) on 51C of Linker (82C of fusion polypeptide)) HGEGTFTSDVSSYLEEQAAKEFIAWLVRGGGGAQPGAQPGAQPGAQPGAQPGAQPGAQPGAQPGQEPGAQPGQEPGAQPGQCPGQEPGQEPGAQPGQEPGAQPGQEPGAQPARQGDHCPLGPGRCCRLHTVRASLEDLGWADWVLSPREVQVTMCIGACPSQFRAANLHAQIKTSLHRLKPDTVPAPCCVPASYNPMVLIQKTDTGVSLQTYDDLLAKDCHCI" assay_result=54.9
binder="MLC092 (ligand, Moiety C (HOOC-(CH2)20-CO-gGlu-2XADO-EDA-CO-CH2) on 35C of Linker (66C of fusion polypeptide)) HGEGTFTSDVSSYLEEQAAKEFIAWLVRGGGGAQPGAQPGAQPGAQPGAQPGAQPGAQPGAQPGQCPGAQPGQEPGAQPGQEPGAQPGQEPGAQPGQEPGAQPGQEPGAQPARQGDHCPLGPGRCCRLHTVRASLEDLGWADWVLSPREVQVTMCIGACPSQFRAANLHAQIKTSLHRLKPDTVPAPCCVPASYNPMVLIQKTDTGVSLQTYDDLLAKDCHCI" assay_result=48.6
